molecular target: Recombinant human PARP1 protein (Homo sapiens); experiment: biochemical
Sequence (P09874 whole entry): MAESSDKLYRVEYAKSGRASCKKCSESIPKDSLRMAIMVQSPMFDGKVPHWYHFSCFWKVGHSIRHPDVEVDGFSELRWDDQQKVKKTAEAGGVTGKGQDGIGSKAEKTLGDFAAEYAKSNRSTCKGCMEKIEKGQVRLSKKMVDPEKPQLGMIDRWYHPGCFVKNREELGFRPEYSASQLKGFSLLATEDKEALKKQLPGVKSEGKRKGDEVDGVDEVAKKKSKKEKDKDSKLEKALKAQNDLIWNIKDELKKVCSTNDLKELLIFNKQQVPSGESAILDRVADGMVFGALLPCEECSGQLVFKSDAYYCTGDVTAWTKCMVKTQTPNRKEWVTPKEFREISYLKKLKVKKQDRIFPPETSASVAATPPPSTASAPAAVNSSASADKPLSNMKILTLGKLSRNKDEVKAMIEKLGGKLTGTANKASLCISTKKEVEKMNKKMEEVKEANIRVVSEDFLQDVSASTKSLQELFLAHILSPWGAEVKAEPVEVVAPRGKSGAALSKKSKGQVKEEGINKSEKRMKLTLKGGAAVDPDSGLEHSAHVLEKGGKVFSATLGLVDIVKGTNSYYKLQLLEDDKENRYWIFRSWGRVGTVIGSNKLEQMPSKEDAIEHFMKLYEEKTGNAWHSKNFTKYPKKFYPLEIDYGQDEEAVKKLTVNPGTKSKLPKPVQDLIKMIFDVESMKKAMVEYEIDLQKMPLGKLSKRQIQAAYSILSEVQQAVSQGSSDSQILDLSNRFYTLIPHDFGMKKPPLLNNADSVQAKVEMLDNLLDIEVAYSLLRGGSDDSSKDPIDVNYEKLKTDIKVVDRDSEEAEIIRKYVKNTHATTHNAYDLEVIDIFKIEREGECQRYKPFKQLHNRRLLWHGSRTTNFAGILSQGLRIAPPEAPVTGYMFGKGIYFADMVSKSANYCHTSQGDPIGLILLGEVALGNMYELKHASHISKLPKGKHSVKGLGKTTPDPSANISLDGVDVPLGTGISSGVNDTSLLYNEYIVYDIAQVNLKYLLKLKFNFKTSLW
pIC50: −log10 of the molar value.
Outcome: fulfilled for pIC50 of at least 9; not fulfilled for anything lower.

1) CCNC(=O)c1ccc(N2CCN(Cc3ccc4c(c3F)NC(=O)N3CCCN=C43)CC2)c(Cl)n1 : fulfilled
2) CNC(=O)c1ccc(N2CCN(C(C)c3ccc4c([nH]c(=O)c5cccn54)c3F)CC2)cn1 (centres unmarked) : not fulfilled
3) CNC(=O)c1ccc(N2CCN(Cc3ccc4c(c3Cl)NC(=O)N3CCN=C43)CC2)c(F)n1 : not fulfilled
4) CNC(=O)c1ccc(N2CCN(Cc3ccc4c(c3F)NC(=O)N3CC[C@@H](C)N=C43)CC2)c(F)n1 : not fulfilled
